Hey, just so you know, these numbers are from patent US20190375708A1.

experiment_notes: In vitro cytotoxicity assay (MTT cell viability) in HepG2 cells
Type: cell-based, human
run_conditions: human
Description: To evaluate antiviral selectivity, the cytotoxic activity of each compound was determined using a standard cell viability assay performed on the parental HepG2 cell line. Cell viability was determined by measuring the conversion of 3-(4,5-dimethylthiazol-2-yl)-2,5-diphenyltetrazolium bromide (MTT) to the insoluble formazan salt crystal that occurs in live cells. […] All absorbance values were converted to a percentage of the signal obtained from the vehicle treated controls. […]

{"structure": "Cc1cc(NC(=O)c2c(C)c(C(=O)C(=O)N[C@H](C(=O)O)C3CCCCC3)n(C)c2C)ccc1F", "CC50 at 7 days": "> 30 µM"}
{"structure": "Cc1cc(NC(=O)c2c(C)c(C(=O)C(=O)Nc3ccc(F)c(F)c3)n(C)c2C)cnc1F", "CC50 at 7 days": "> 30 µM"}
{"structure": "Cc1c(C(=O)Nc2ccnc(Cl)c2)c(C)n(C)c1C(=O)C(=O)NC1(C(F)(F)F)CCOCC1", "CC50 at 7 days": "> 30 µM"}
{"structure": "Cc1cc(NC(=O)c2c(C)c(C(=O)C(=O)Nc3ccc(C(F)(F)F)nc3)n(C)c2C)ccc1F", "CC50 at 7 days": "5 to 30 µM"}

====

experiment_notes: In vitro cytotoxicity assay (MTT cell viability) in HepG2 cells
Format: cell-based, human
run_conditions: human
Description: To evaluate antiviral selectivity, the cytotoxic activity of each compound was determined using a standard cell viability assay performed on the parental HepG2 cell line. Cell viability was determined by measuring the conversion of 3-(4,5-dimethylthiazol-2-yl)-2,5-diphenyltetrazolium bromide (MTT) to the insoluble formazan salt crystal that occurs in live cells. […] All absorbance values were converted to a percentage of the signal obtained from the vehicle treated controls. […]

{"structure": "Cc1cc(NC(=O)c2c(Cl)c(C(=O)C(=O)NCC(C)(C)CO)n3c2CCCC3)ccc1F", "CC50 at 7 days": "> 30 µM"}
{"structure": "Cc1cc(NC(=O)c2c(C)c(C(=O)C(=O)Nc3ccccn3)n(C)c2C)ccc1F", "CC50 at 7 days": "> 30 µM"}
{"structure": "CC(C)(CO)CNC(=O)C(=O)c1c(Cl)c(C(=O)Nc2ccc(F)c(Cl)c2)c2n1CCC2", "CC50 at 7 days": "5 to 30 µM"}
{"structure": "Cc1cc(NC(=O)c2c(C)c(C(=O)C(=O)NOC(C)(C)CO)n(C)c2C)ccc1F", "CC50 at 7 days": "> 30 µM"}
{"structure": "Cc1cc(NC(=O)c2c(C)c(C(=O)NC(C)(C)CN3CCOCC3)n(C)c2C)ccc1F", "CC50 at 7 days": "> 30 µM"}
{"structure": "Cc1cc(NC(=O)c2c(C)c(C(=O)C(=O)NC3(C)CCN(C(=O)Nc4ccc(F)c(F)c4)CC3)n(C)c2C)ccc1F", "CC50 at 7 days": "0.5 to 4.99 µM"}
{"structure": "Cc1c(C(=O)Nc2ccc(F)c(Cl)c2)c(Cl)c(C(=O)C(=O)NC(C)(C)C)n1C", "CC50 at 7 days": "> 30 µM"}
{"structure": "Cc1c(C(=O)Nc2ccc(F)c(F)c2)c(C)n(C)c1C(=O)C(=O)NC(C)(C)C", "CC50 at 7 days": "> 30 µM"}
